# System: KELLY cells
# experimental-details: Secondary validation screen of synthetic lethal miRNAs with low dose IC30 chemotherapy, cell viability
# Format: cell-based
# measurement-context: miRNA mimic + low dose IC30 doxorubicin
The entries below come with measured Secondary screen Viability (% of control) Kelly DXR values attached.

| substance | measured-on | result-value |
| --- | --- | --- |
| hsa-miR-34c-5p (AGGCAGUGUAGUUAGCUGAUUGC; chemistry not given here; listed as Homo sapiens) | KELLY cells | 80 % of control |

Secondary screen Viability (% of control) Kelly DXR reported for this substance hsa-miR-3151 (GGUGGGGCAAUGGGAUCAGGU; chemistry not given here; listed as Homo sapiens) : 65 % of control

Lab note: hsa-miR-3181 (AUCGGGCCCUCGGCGCCGG; chemistry not given here; listed as Homo sapiens) gave Secondary screen Viability (% of control) Kelly DXR of 61 % of control

Just so you know, measured Secondary screen Viability (% of control) Kelly DXR for hsa-miR-1321 (CAGGGAGGUGAAUGUGAU; chemistry not given here; listed as Homo sapiens) came out at 7 % of control

Kindly note the recorded Secondary screen Viability (% of control) Kelly DXR for hsa-miR-380-3p (UAUGUAAUAUGGUCCACAUCUU; chemistry not given here; listed as Homo sapiens) , which is 38 % of control

The reported value for hsa-miR-99b-5p (guide CACCCGUAGAACCGACCUUGCG; chemistry not given here; listed as Homo sapiens) in terms of Secondary screen Viability (% of control) Kelly DXR is 29 % of control

Value of measured Secondary screen Viability (% of control) Kelly DXR for the entry hsa-miR-3924 (AUAUGUAUAUGUGACUGCUACU; chemistry not given here; listed as Homo sapiens) : 46 % of control

* * *

// Secondary screen Viability (% of control) SHEP lookup, one value per entry
# System: SHEP cells
# experimental-details: Secondary validation screen of lethal miRNAs, cell viability
# Assay type: cell-based
# measurement-context: miRNA mimic alone

| substance | measured-on | result-value |
| --- | --- | --- |
| hsa-miR-103a-2-5p (AGCUUCUUUACAGUGCUGCCUUG; chemistry not given here; listed as Homo sapiens) | SHEP cells | 56 % of control |
| hsa-miR-892b (guide CACUGGCUCCUUUCUGGGUAGA; chemistry not given here; listed as Homo sapiens) | SHEP cells | 34 % of control |
| hsa-miR-654-5p (guide UGGUGGGCCGCAGAACAUGUGC; chemistry not given here; listed as Homo sapiens) | SHEP cells | 45 % of control |
| hsa-miR-876-3p (guide UGGUGGUUUACAAAGUAAUUCA; chemistry not given here; listed as Homo sapiens) | SHEP cells | 51 % of control |
| hsa-miR-1262 (AUGGGUGAAUUUGUAGAAGGAU; chemistry not given here; listed as Homo sapiens) | SHEP cells | 42 % of control |

// sample hsa-miR-544a (guide AUUCUGCAUUUUUAGCAAGUUC; chemistry not given here; listed as Homo sapiens) , its Secondary screen Viability (% of control) SHEP was 61 % of control

Measured Secondary screen Viability (% of control) SHEP of hsa-miR-552 (guide AACAGGUGACUGGUUAGACAA; chemistry not given here; listed as Homo sapiens) : 47 % of control

Reported Secondary screen Viability (% of control) SHEP for hsa-miR-517c-3p (guide AUCGUGCAUCCUUUUAGAGUGU; chemistry not given here; listed as Homo sapiens) was 43 % of control

response.value for hsa-miR-542-3p (guide UGUGACAGAUUGAUAACUGAAA; chemistry not given here; listed as Homo sapiens) (field: Secondary screen Viability (% of control) SHEP) = 38 % of control

Field Secondary screen Viability (% of control) SHEP (entry hsa-miR-491-3p (guide CUUAUGCAAGAUUCCCUUCUAC; chemistry not given here; listed as Homo sapiens) ) reads 34 % of control

Noted for hsa-miR-101-3p (UACAGUACUGUGAUAACUGAA; chemistry not given here; listed as Homo sapiens) : its Secondary screen Viability (% of control) SHEP reads 69 % of control

Value of measured Secondary screen Viability (% of control) SHEP for the entry hsa-miR-1231 (GUGUCUGGGCGGACAGCUGC; chemistry not given here; listed as Homo sapiens) : 46 % of control

The reported Secondary screen Viability (% of control) SHEP of the substance hsa-miR-489 (guide GUGACAUCACAUAUACGGCAGC; chemistry not given here; listed as Homo sapiens) was 43 % of control

* * *

Primary screen Viability (% of control) Kelly VCR by entry:
# Test system: KELLY cells
# experimental-details: Primary miRNA mimic screen in combination with low dose IC30 of vincristine or doxorubicin, cell viability
# Assay type: cell-based
# measurement-context: miRNA mimic 25 nM + low dose IC30 vincristine

| substance | result-value |
| --- | --- |
| hsa-miR-3646 (AAAAUGAAAUGAGCCCAGCCCA; chemistry not given here; listed as Homo sapiens) | 55 % of control |

For hsa-miR-34a-5p (UGGCAGUGUCUUAGCUGGUUGU; chemistry not given here; listed as Homo sapiens) the substance record lists Primary screen Viability (% of control) Kelly VCR as 36 % of control

hsa-miR-3151 (GGUGGGGCAAUGGGAUCAGGU; chemistry not given here; listed as Homo sapiens) yielded Primary screen Viability (% of control) Kelly VCR of 52 % of control

What the record says about hsa-miR-34c-5p (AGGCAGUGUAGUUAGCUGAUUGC; chemistry not given here; listed as Homo sapiens) : Primary screen Viability (% of control) Kelly VCR is 36 % of control

Consider hsa-miR-380-3p (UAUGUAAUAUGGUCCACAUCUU; chemistry not given here; listed as Homo sapiens) . Its measured Primary screen Viability (% of control) Kelly VCR is 63 % of control

Measured Primary screen Viability (% of control) Kelly VCR of hsa-miR-485-3p (guide GUCAUACACGGCUCUCCUCUCU; chemistry not given here; listed as Homo sapiens) : 52 % of control

* * *

# key: entry, value: Secondary screen Viability (% of control) SHEP
# Test system: SHEP cells
# experimental-details: Secondary validation screen of lethal miRNAs, cell viability
# Type: cell-based
# measurement-context: miRNA mimic alone

Example entries and their recorded answers appear below.
| substance | result-value |
| --- | --- |
| hsa-miR-550a-3p (guide UGUCUUACUCCCUCAGGCACAU; chemistry not given here; listed as Homo sapiens) | 94 % of control |
| hsa-miR-634 (guide AACCAGCACCCCAACUUUGGAC; chemistry not given here; listed as Homo sapiens) | 12 % of control |
| hsa-miR-192-3p (CUGCCAAUUCCAUAGGUCACAG; chemistry not given here; listed as Homo sapiens) | 49 % of control |

Please find the next substance below.
Result for hsa-miR-148b-5p (AAGUUCUGUUAUACACUCAGGC; chemistry not given here; listed as Homo sapiens) , tested on SHEP cells, Secondary screen Viability (% of control) SHEP: 34 % of control

* * *

# System: SK-N-DZ MYCN-amplified neuroblastoma cell line
# experimental-details: Secondary validation screen of synthetic lethal miRNAs with low dose IC30 chemotherapy, additional cell line
# Type: cell-based
# measurement-context: miRNA mimic + low dose IC30 doxorubicin
Examples of substances with documented Additional cell line Viability (% of control) SKNDZ DXR follow.

Worked examples, 3 substances total:
| substance | result-value |
| --- | --- |
| hsa-miR-380-3p (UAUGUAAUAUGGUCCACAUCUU; chemistry not given here; listed as Homo sapiens) | 30 % of control |
| hsa-miR-3181 (AUCGGGCCCUCGGCGCCGG; chemistry not given here; listed as Homo sapiens) | 38 % of control |
| hsa-miR-515-3p (guide GAGUGCCUUCUUUUGGAGCGUU; chemistry not given here; listed as Homo sapiens) | 24 % of control |

Read the next record carefully.
// Additional cell line Viability (% of control) SKNDZ DXR value for hsa-miR-34a-5p (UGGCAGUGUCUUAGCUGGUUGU; chemistry not given here; listed as Homo sapiens) : 74 % of control

* * *

Each entry below carries its reported Additional cell line Viability (% of control) SKNDZ Vehicle.
# System: SK-N-DZ MYCN-amplified neuroblastoma cell line
# experimental-details: Secondary validation screen of synthetic lethal miRNAs with low dose IC30 chemotherapy, additional cell line
# Type: cell-based
# measurement-context: miRNA mimic + vehicle

Some substances with recorded Additional cell line Viability (% of control) SKNDZ Vehicle:
| substance | measured-on | result-value |
| --- | --- | --- |
| hsa-miR-99b-5p (guide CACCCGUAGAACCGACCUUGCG; chemistry not given here; listed as Homo sapiens) | SK-N-DZ MYCN-amplified neuroblastoma cell line | 93 % of control |
| hsa-miR-34c-5p (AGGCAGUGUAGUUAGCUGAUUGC; chemistry not given here; listed as Homo sapiens) | SK-N-DZ MYCN-amplified neuroblastoma cell line | 53 % of control |
| hsa-miR-380-3p (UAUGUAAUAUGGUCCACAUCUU; chemistry not given here; listed as Homo sapiens) | SK-N-DZ MYCN-amplified neuroblastoma cell line | 100 % of control |

Additional cell line Viability (% of control) SKNDZ Vehicle of hsa-miR-3181 (AUCGGGCCCUCGGCGCCGG; chemistry not given here; listed as Homo sapiens) , assay on SK-N-DZ MYCN-amplified neuroblastoma cell line, is 91 % of control
